Kindly supply the reported fold change (FC) values for the records listed here.
- Test system: Pseudomonas aeruginosa
- EXPERIMENT_DESCRIPTION: Antibiotic adjuvant activity against Pseudomonas aeruginosa PAO1 assessed as fold potentiation incubated for 18 hrs in presence of Rifampicin by two fold broth microdilution checkerboard assay
- Type: functional
Give bare numbers.

Provide fold change (FC) for all items below, preserving their order.
1. Cl.NC[C@H]1O[C@H](O[C@H]2[C@H](OCc3ccccc3)[C@@H](OCc3ccccc3)[C@H](N)C[C@@H]2N)[C@H](N)C[C@@H]1OCc1ccccc1
2. Cl.NC[C@H]1O[C@H](O[C@H]2[C@H](OCc3ccccc3)[C@@H](O[C@H]3O[C@H](COCc4ccccc4)[C@@H](OCc4ccccc4)[C@H](N)[C@H]3OCc3ccccc3)[C@H](N)C[C@@H]2N)[C@H](N)C[C@@H]1OCc1ccccc1

1: 4; 2: 8

Provide fold change (FC) value for the following compound: NC[C@H]1O[C@H](O[C@H]2[C@H](OC(=O)Nc3ccccc3)[C@@H](O[C@H]3O[C@H](COC(=O)Nc4ccccc4)[C@@H](OC(=O)Nc4ccccc4)[C@H](N)[C@H]3OC(=O)Nc3ccccc3)[C@H](N)C[C@@H]2N)[C@H](N)C[C@@H]1OC(=O)Nc1ccccc1.O=C(O)C(F)(F)F
1
